# assay name: Selectivity index, ratio of IC50 for cytotoxicity against human L02 cells to IC50 for cytotoxicity against human HCT-116 cells
# Assay type: toxicity, cell-based
# test parameters: L02 cells and HCT-116 cells, read-out: Ratio IC50
Item-by-item account of selectivity ratio
Answer with the value's number alone.

Some solved cases for reference:
compound: O=c1c(F)cn(C2CCCO2)c(=O)n1CCCCCCCCN1C[C@H](O)[C@@H](O)[C@H](O)[C@H]1CO (some centres undefined)
value: 4

compound: O=c1c(F)cn(C2CCCO2)c(=O)n1CCCCCCCCCCCN1C[C@H](O)[C@@H](O)[C@H](O)[C@H]1CO (some centres undefined)
value: 14.4

compound: O=c1[nH]c(=O)n(C2CCCO2)cc1F (centres undefined) [TEGAFUR]
value: 0.27

Here's the next entry for you.
Exercise: For the compound O=c1c(F)cn(C2CCCO2)c(=O)n1CCCCCN1C[C@H](O)[C@@H](O)[C@H](O)[C@H]1CO (some centres undefined) , give its measured selectivity ratio value.
Key: 3.6
